Please go through the items and note down their IC50.
- Test system: HT1080 cells
- EXPERIMENTAL_PROTOCOL: Cellular assay for IDH1m R132C inhibitors, 2-HG by LC-MS in HT1080 cells
- Format: cell-based
- STUDY_CONDITIONS: Homo sapiens, HT-1080

Lookup: Give the value of IC50 reported for the following: "C[C@@H](Nc1nc(NC(C(F)(F)F)C(F)(F)F)nc(-c2cccc(Cl)n2)n1)C(F)(F)F"
Found: < 50 nM

Lookup: Look up and report measured IC50 for this entry: "FC1(F)CCC(Nc2nc(NC3CCC(F)(F)CC3)nc(-c3nc(C(F)(F)F)cs3)n2)CC1"
Found: 50 to 100 nM

Lookup: // Input: "CC[C@H](Nc1nc(N[C@@H](CC)C(F)(F)F)nc(-c2cccc(Cl)n2)n1)C(F)(F)F" . Output its IC50 only.
Found: < 50 nM

Lookup: Quote IC50 reported for "C[C@@H](Nc1nc(Nc2ccnc(C#N)c2)nc(-n2ccc(C(F)(F)F)n2)n1)C(F)(F)F" please.
Found: 100 to 1000 nM

Lookup: // fetch IC50 given entry "CC(F)(F)c1nc(-c2nc(NC3CC(F)(F)C3)nc(NC3CC(F)(F)C3)n2)cs1"
Found: 100 to 1000 nM

Lookup: Provide measured IC50 value, entry: "FC1(F)CC(Nc2nc(Nc3ccnc(C(F)(F)F)c3)nc(-c3cncc(C(F)(F)F)n3)n2)C1"
Found: 100 to 1000 nM

Lookup: Report measured IC50; entry is CC(Nc1nc(Nc2ccnc(-c3ccccc3)c2)nc(-c2cccc(C(F)(F)F)n2)n1)C(F)(F)F (stereo not drawn)
Found: 100 to 1000 nM

Lookup: Give the value of IC50 reported for the following: "FC1(F)CCC(Nc2nc(NC3CCC(F)(F)CC3)nc(-c3cccc(Cl)n3)n2)CC1"
Found: 50 to 100 nM

Lookup: Kindly indicate its recorded IC50. Item: "C[C@@H](Nc1nc(N[C@H](C)C(F)(F)F)nc(-c2csc(C(F)(F)F)n2)n1)C(F)(F)F"
Found: < 50 nM

Lookup: Write down IC50 measured for item "FC(F)c1cncc(-c2nc(NC3CCC(F)(F)CC3)nc(NC3CCC(F)(F)CC3)n2)n1"
Found: 100 to 1000 nM

Lookup: State, in one line, measured IC50 of "FC(F)c1cncc(-c2nc(NC3CC(F)(F)C3)nc(NC3CC(F)(F)C3)n2)n1"
Found: < 50 nM

Lookup: Determine from records and report IC50 for Fc1cc(F)cc(Nc2nc(NC3CCC(F)(F)C3)nc(-n3ccc(C(F)(F)F)n3)n2)c1 (stereo not drawn)
Found: 50 to 100 nM

Lookup: Kindly indicate its recorded IC50. Item: "FC(F)(F)CNc1nc(Nc2ccnc(C(F)(F)F)c2)nc(-c2cccc(C(F)(F)F)n2)n1"
Found: > 1000 nM

Lookup: Tell me IC50 reported for "FC(F)c1csc(-c2nc(NC3CCC(F)(F)CC3)nc(NC3CCC(F)(F)CC3)n2)n1"
Found: 50 to 100 nM

Lookup: Determine from records and report IC50 for CC(Nc1nc(Nc2ccnc(C3(C#N)CC3)c2)nc(-c2cccc(Cl)n2)n1)C(F)(F)F (stereo not drawn)
Found: < 50 nM

Lookup: Item "FC1(F)CC(Nc2nc(NC3CC(F)(F)C3)nc(-c3cncc(C(F)(F)F)n3)n2)C1" : provide IC50
Found: < 50 nM

Lookup: Answer with reported IC50 of "FC1(F)CCC(Nc2nc(NC3CC(F)(F)C3)nc(-c3cccc(C(F)(F)F)n3)n2)CC1"
Found: 50 to 100 nM

Lookup: Consider the compound "C[C@@H](Nc1nc(N[C@H](C)C2CCC2)nc(-c2cccc(C(F)(F)F)n2)n1)C1CCC1" and give its recorded IC50.
Found: 50 to 100 nM

Lookup: Tell me IC50 reported for "FC1(F)CC[C@H](Nc2nc(Nc3ccnc(C(F)(F)F)c3)nc(-c3cncc(C(F)(F)F)n3)n2)C1"
Found: 100 to 1000 nM

Lookup: Fill in IC50 for record CC(Nc1nc(N[C@H](C)C2CC2)nc(-c2cccc(C(F)(F)F)n2)n1)c1cccc(F)c1 (stereo partly drawn)
Found: 50 to 100 nM

Lookup: Please give the documented IC50 of "FC1(F)CC[C@@H](Nc2nc(N[C@H]3CCC(F)(F)C3)nc(-c3cccc(C(F)(F)F)n3)n2)C1"
Found: < 50 nM
